measured-target: T7 RNA polymerase (Escherichia phage T7, UniProt P00573)
Sequence (P00573 whole entry): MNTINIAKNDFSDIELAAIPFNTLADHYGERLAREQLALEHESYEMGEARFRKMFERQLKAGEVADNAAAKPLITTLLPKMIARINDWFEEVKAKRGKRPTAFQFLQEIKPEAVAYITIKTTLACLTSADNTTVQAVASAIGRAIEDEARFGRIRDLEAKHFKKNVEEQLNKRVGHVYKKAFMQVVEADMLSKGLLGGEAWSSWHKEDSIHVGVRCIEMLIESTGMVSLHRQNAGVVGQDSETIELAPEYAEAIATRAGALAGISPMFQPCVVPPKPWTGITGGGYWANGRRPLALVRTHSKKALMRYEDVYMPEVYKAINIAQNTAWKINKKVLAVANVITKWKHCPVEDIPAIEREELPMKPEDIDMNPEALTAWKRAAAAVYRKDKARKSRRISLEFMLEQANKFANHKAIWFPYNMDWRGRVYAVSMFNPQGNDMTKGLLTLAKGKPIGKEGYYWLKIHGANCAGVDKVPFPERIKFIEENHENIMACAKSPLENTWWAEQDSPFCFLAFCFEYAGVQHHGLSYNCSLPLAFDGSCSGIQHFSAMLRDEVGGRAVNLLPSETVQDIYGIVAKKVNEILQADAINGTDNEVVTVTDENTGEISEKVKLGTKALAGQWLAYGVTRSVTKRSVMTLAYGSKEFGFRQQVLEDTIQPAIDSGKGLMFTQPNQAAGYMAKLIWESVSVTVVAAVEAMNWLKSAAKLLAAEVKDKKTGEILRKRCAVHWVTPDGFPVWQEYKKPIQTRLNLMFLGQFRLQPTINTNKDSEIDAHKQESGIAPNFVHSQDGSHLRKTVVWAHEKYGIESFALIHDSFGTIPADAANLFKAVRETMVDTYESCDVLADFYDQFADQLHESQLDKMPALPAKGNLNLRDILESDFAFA
protocol-description: Capping rate of mRNA transcription initiated by cap analogs (LC-MS)
Type: biochemical
reported-conditions: relative to 5227
Listed here are molecules together with their documented Increase relative to 5227 (capping rate).
Give the value in % but do not write % after it.

{"molecule": "CO[C@@H]1[C@H](OP(=O)(O)OC[C@H]2O[C@@H](n3cnc4c(=O)[nH]c(N)nc43)[C@H](O)[C@@H]2O)[C@@H](COP(=O)(O)OP(=O)(O)OP(=O)(O)OC[C@H]2OC([n+]3cn(C)c4c(=O)[nH]c(N)nc43)[C@H](O)[C@@H](O)[C@@H]2O)O[C@H]1n1cnc2c(N)ncnc21 (stereo partly drawn)", "measured-metric": "Increase relative to 5227 (capping rate)", "measured-result": "−40.5"}

Prompt line: What measured Increase relative to 5227 (capping rate) goes with COC[C@@H]1[C@H](OP(=O)(O)OC[C@H]2O[C@@H](n3cnc4c(=O)[nH]c(N)nc43)[C@H](O)[C@@H]2O)[C@@H](COP(=O)(O)OP(=O)(O)OP(=O)(O)OC[C@H]2O[C@@H]([n+]3cn(C)c4c(=O)[nH]c(N)nc43)[C@H](O)[C@@H]2O)O[C@H]1n1cnc2c(N)ncnc21 ?
Response line: 32.4

Prompt line: What measured Increase relative to 5227 (capping rate) goes with COC(C)[C@H]1[C@@H](O)[C@H]([n+]2cn(C)c3c(=O)[nH]c(N)nc32)O[C@@H]1COP(=O)(O)OP(=O)(O)OP(=O)(O)OC[C@H]1O[C@@H](n2cnc3c(N)ncnc32)[C@H](OC)[C@@H]1OP(=O)(O)OC[C@H]1O[C@@H](n2cnc3c(=O)[nH]c(N)nc32)[C@H](O)[C@@H]1O (stereo partly drawn) ?
Response line: 35.3

----------
System: BALB/C mice
protocol-description: In vivo imaging of Fluc-mRNA LNP expression in mice
reported-conditions: 48 h
measured-metric: Multiple of total radiation intensity relative to m6A
API doc: respond with a numeric literal and nothing else, no unit.

Prompt line: Notebook: pull reported Multiple of total radiation intensity relative to m6A for BALB/C mice, entry CO[C@@H]1[C@H](OP(=O)(O)OC[C@H]2O[C@@H](n3cnc4c(=O)[nH]c(N)nc43)[C@H](O)[C@@H]2O)[C@@H](COP(=O)(O)OP(=O)(O)OP(=O)(O)OC[C@@]2(CF)O[C@@H]([n+]3cn(C)c4c(=O)[nH]c(N)nc43)[C@H](O)[C@@H]2O)O[C@H]1n1cnc2c(N)ncnc21
Response line: 2.6

Prompt line: Notebook: pull reported Multiple of total radiation intensity relative to m6A for BALB/C mice, entry CO[C@@H]1[C@H](OP(=O)(O)OC[C@H]2O[C@@H](n3cnc4c(=O)[nH]c(N)nc43)[C@H](O)[C@@H]2O)[C@@H](COP(=O)(O)OP(=O)(O)OP(=O)(O)OC[C@H]2O[C@@H]([n+]3cn(C)c4c(=O)[nH]c(N)nc43)[C@H](O)[C@@H]2C(F)F)O[C@H]1n1cnc2c(N)ncnc21
Response line: 4.4

Prompt line: Notebook: pull reported Multiple of total radiation intensity relative to m6A for BALB/C mice, entry COC(C)[C@H]1[C@@H](O)[C@H]([n+]2cn(C)c3c(=O)[nH]c(N)nc32)O[C@@H]1COP(=O)(O)OP(=O)(O)OP(=O)(O)OC[C@H]1O[C@@H](n2cnc3c(N)ncnc32)[C@H](OC)[C@@H]1OP(=O)(O)OC[C@H]1O[C@@H](n2cnc3c(=O)[nH]c(N)nc32)[C@H](O)[C@@H]1O (stereo partly drawn)
Response line: 1.2

Origin of measurements: patent US12576099B2
